These entries and their values trace back to ChEMBL document CHEMBL2401664.

method_summary: Cytotoxicity against mouse B16F10 cells assessed as cell viability at 2 uM after 48 hrs by MTT assay
Assay type: cell-based, B16-F10
experimental_conditions: read-out: Activity
measured_metric: viability at 48 h, 2 µM (%)
Return type: number; implicit unit %.

Field request: viability at 48 h, 2 µM | item: `Oc1ccc(-c2nc3cc4c(cc3s2)CCC4)c(O)c1`
97.9

====

method_summary: Cytotoxicity against mouse B16F10 cells assessed as cell viability at 5 uM after 48 hrs by MTT assay
Format: cell-based, B16-F10
experimental_conditions: read-out: Activity
measured_metric: viability at 48 h, 5 µM (%)
Provide only the numeric value, understood in %.

Entry `Oc1ccc(-c2nc3cc4c(cc3s2)CCC4)c(O)c1` has what viability at 48 h, 5 µM?
95
